Target: UniProt P30989
Sequence (P30989 whole entry): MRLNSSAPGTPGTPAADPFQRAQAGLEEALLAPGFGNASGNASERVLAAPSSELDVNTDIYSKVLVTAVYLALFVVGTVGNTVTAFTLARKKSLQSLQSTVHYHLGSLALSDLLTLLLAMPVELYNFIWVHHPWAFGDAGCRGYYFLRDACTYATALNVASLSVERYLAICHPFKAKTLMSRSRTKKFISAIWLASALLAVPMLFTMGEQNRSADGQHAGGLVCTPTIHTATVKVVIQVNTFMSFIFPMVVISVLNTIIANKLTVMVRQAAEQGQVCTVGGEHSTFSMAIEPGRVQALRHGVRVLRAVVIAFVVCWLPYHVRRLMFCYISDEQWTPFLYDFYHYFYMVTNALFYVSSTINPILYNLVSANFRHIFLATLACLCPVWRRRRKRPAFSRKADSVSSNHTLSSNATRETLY
Experiment: Displacement of [3H]UR-MK300 from human NTS1R expressed in human HT-29 cells incubated for 2 hrs by scintillation counting method
Type: cell-based
Settings: read-out: Ki
Each entry below lists one item and its recorded Ki value.
Give the value in nM but do not write nM after it.

Worked set:
mol	unit-of-measurement	Ki
CC(C)C[C@H](NC(=O)[C@@H](NC(=O)[C@H](Cc1ccc(O)cc1)NC(=O)[C@@H]1CCCN1C(=O)[C@H](CCCNC(=N)N)NC(=O)[C@@H](N)CCCNC(=N)NC(=O)NCCCCc1cn(CCCNC(=O)CCCCCN2/C(=C/C=C/C=C/C3=[N+](C)c4ccc5c(S(=O)(=O)[O-])cc(S(=O)(=O)O)cc5c4C3(C)C)C(C)(C)c3c2ccc2c(S(=O)(=O)O)cc(S(=O)(=O)O)cc32)nn1)C(C)(C)C)C(=O)O	nM	50
C#CCCCCNC(=O)NC(=N)NCCC[C@H](NC(=O)[C@@H](N)CCCNC(=N)N)C(=O)N1CCC[C@H]1C(=O)N[C@@H](Cc1ccc(O)cc1)C(=O)N[C@H](C(=O)N[C@@H](CC(C)C)C(=O)O)C(C)(C)C	nM	9.4
C#CCCCCNC(=O)NC(=N)NCCC[C@H](NC(=O)[C@H](CCCNC(=N)N)NC)C(=O)N1CCC[C@H]1C(=O)N[C@@H](Cc1ccc(O)cc1)C(=O)N[C@H](C(=O)N[C@@H](CC(C)C)C(=O)O)C(C)(C)C	nM	9.6

Now look at this one.
Exercise: // lookup Ki for C#CCCCCNC(=O)NC(=N)NCCC[C@H](N)C(=O)N[C@@H](CCCNC(=N)N)C(=O)N1CCC[C@H]1C(=O)N[C@@H](Cc1ccc(O)cc1)C(=O)N[C@H](C(=O)N[C@@H](CC(C)C)C(=O)O)C(C)(C)C
Solution: 4.2

Data origin, for the record: ChEMBL document CHEMBL4342486
